Target: Cytochrome P450 2C19 (Homo sapiens) (UniProt P33261)
Sequence (P33261 whole entry, looked up): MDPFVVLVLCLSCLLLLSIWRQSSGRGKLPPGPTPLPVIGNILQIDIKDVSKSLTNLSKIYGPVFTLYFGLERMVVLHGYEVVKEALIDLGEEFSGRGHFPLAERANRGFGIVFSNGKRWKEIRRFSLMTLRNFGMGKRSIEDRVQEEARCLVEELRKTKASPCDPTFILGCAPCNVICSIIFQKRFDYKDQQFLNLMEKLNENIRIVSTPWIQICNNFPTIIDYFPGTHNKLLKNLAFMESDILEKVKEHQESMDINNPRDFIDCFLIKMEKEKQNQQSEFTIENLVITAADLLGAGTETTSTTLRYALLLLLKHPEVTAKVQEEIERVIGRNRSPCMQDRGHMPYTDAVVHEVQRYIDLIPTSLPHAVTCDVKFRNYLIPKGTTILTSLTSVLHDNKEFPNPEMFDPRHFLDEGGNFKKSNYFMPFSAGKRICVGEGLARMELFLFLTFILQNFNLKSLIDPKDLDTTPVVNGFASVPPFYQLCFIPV
Assay: blockers of cytochrome P450 2C19 activity – biochemical, luminescence, ADME assay, primary screen (AID 778);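 note: plate controls were negative control wells for no effect and 2.5 mM tranylcypromine positive control for full effect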
Settings: CYP2C19 Supersomes, luciferin-H EGE luminescence, 30 min; at 5 µM
Out of some 96,000 compounds screened, about 20,000 (21%) were called active.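 Rule for the calls: active = CYP2C19 inhibition above a set limit at 5 µM in the primary screen (cut at about 50% in these data); inactive = the rest.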 These entries were drawn from the full list.
Answer with one of the outcomes Yes for active, No for inactive

Use these answered entries as a reference point.
COc1ccccc1C(=O)n1nc(-c2ccccc2)nc1N : Yes
Brc1ccc(/C=N/N2CCN(C3c4ccccc4-c4ccccc43)CC2)s1 : No
CCn1c(SCCC(C)C)nnc1-c1c[nH]c2ccccc12 : Yes
O=c1c2ccccc2oc2nc3n(c(=O)c12)CCCS3 : No
N#Cc1ccsc1NC(=O)CN1CCCCC1 : No

Prompt: Would you mind telling me which call this test gave CC(=O)N1Cc2ccccc2CC1C(=O)O (stereo unspecified) ?
Response: No

* * *

Molecular target: Cytochrome P450 2C19 (Homo sapiens) (UniProt P33261)
Experiment: blockers of cytochrome P450 2C19 activity – biochemical, luminescence, ADME assay, primary screen (AID 778)
Settings: CYP2C19 Supersomes, luciferin-H EGE luminescence, 30 min; at 5 µM
Among all 96,000 compounds or so, about 20,000 (21%) were called active.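 Rule for the calls: active = CYP2C19 inhibition above a set limit at 5 µM in the primary screen (cut at about 50% in these data); inactive = the rest.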 A selection follows.
Answer with one of the outcomes active, inactive

COC(=O)C1C(=O)CC(C)(O)C(C(=O)OC)C1c1ccc2c(c1)OCO2 (stereo unspecified) : inactive
Cc1ccc(NC(=O)C2CC(c3ccc(F)cc3)=NO2)cc1 (stereo unspecified) : inactive
O=C(Nc1ccc2c(c1)OCO2)C1CC(c2c(F)cccc2Cl)=NO1 (stereo unspecified) : active

Prompt: Would you mind telling me which call this test gave O=c1cc(Cn2nnc(-c3ccc(Cl)cc3)n2)nc2sccn12 ?
Response: active

Prompt: Input O=S(=O)(c1ccc(Sc2nnc3ccccn23)nc1)N1CCOCC1
Response: inactive

Prompt: Input Cc1cc2c(=O)n(C)c(SCC(=O)c3cc4ccccc4o3)nc2s1
Response: active

* * *

Target: Cytochrome P450 2C19 (Homo sapiens) (UniProt P33261)
Assay: blockers of cytochrome P450 2C19 activity – biochemical, luminescence, ADME assay, primary screen (AID 778)
Settings: CYP2C19 Supersomes, luciferin-H EGE luminescence, 30 min; at 5 µM; stronger effect = higher value
Among all 96,000 compounds or so, about 20,000 (21%) were called active. Only a sample is shown.
attribute-measured: inhibition (%)
Numeric answer only, unit % assumed.

Record excerpt, results attached:
O=C1CCC(=O)N1CCOP1(=O)COc2ccccc2OC1 : -14.7
O=P(O)(CP(=O)(c1ccccc1)c1ccccc1)c1ccccc1 : -1.3
CC(=O)c1cccc(NC(=O)Nc2ccc(C)cc2)c1 : -13.3
CCOC(=O)CSC1=C(C#N)C(c2ccco2)C(C(=O)OCc2ccccc2)=C(C)N1 (centres undefined) : 72.5
CC1=C(C(=O)Nc2ccccc2)C(c2ccco2)C(C#N)=C(SCC(N)=O)N1 (centres undefined) : 2.2

Prompt: Reported inhibition for O=C1Nc2ccc(Br)cc2/C1=N/N=C/C1=C(N2CCOCC2)C(=C\c2ccccc2)/CC1 : what is it?
Response: -1.8

Prompt: Input COC(=O)C1=C(C)Nc2ncnn2C1c1ccco1 (centres undefined)
Response: -5.4

Prompt: Input COc1cc(CC(=O)NCc2cccs2)cc(OC)c1OC
Response: 34.5

Prompt: Input CCOC(=O)C1C(=O)NC(N2CCN(c3ccccc3)CC2)=NC1c1ccco1 (centres undefined)
Response: 6.9

Prompt: Input CCOC(=O)c1cnn(Cc2ccccc2Cl)c1N
Response: 30.5

Prompt: Input CCOc1cc2[nH]c(=S)n(Cc3ccc(C(=O)NCCOC)cc3)c(=O)c2cc1OCC
Response: -10.8

Prompt: Input Cc1ccc(C(=O)c2c(NC(=O)c3ccncc3)sc3c2CCCC3)cc1
Response: 28.7

Prompt: Input O=C(CSCc1c(F)cccc1Cl)NCC1CCCO1 (centres undefined)
Response: 52.6

Prompt: Input Cn1cccc1C(=O)NC(=O)COC(=O)Cc1coc2ccc3ccccc3c12
Response: 31.8

Prompt: Input COc1ccc(CCN(Cc2cc3cccc(C)c3[nH]c2=O)C(=O)N2CCCC2)cc1OC
Response: 15.5

Prompt: Input COc1cc(CNCc2cccs2)cc(Br)c1OC
Response: 68.5

Prompt: Input CCOC(=O)c1cc(C)sc1NC(=O)C1CCC1
Response: 54.6

Prompt: Input CCCCNC(=O)CSc1nc2ccc(NC(=O)CSc3nnc(COc4ccccc4C)n3C)cc2s1
Response: 19.1

Prompt: Input Cn1c(CO)cnc1SCc1ccccc1
Response: 39.7

* * *

Molecular target: Cytochrome P450 2C19 (Homo sapiens)
Assay: blockers of cytochrome P450 2C19 activity – biochemical, luminescence, ADME assay, primary screen (AID 778);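 note: plate controls were negative control wells for no effect and 2.5 mM tranylcypromine positive control for full effect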
Conditions: CYP2C19 Supersomes, luciferin-H EGE luminescence, 30 min; at 5 µM
The whole screen tested about 96,000 compounds, of which about 20,000 (21%) were called active.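 How the source made its calls: active means CYP2C19 inhibition above a set limit at 5 µM in the primary screen (cut at about 50% in these data); inactive means the rest.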 Only a sample is shown.
Answer with one of the outcomes active, inactive

CCC1=C(C(=O)OC)C(c2cc(OC)ccc2OC)C(C#N)=C(N)O1 (centres undefined) : active
CN(C)/C=C1/C(=O)Nc2ccccc21 : inactive

Prompt: Would you mind telling me which call this test gave Cc1ccc2cc(C#N)c(SCC(=O)NCC3CCCO3)nc2c1C (centres undefined) ?
Response: inactive

Prompt: Input CCCc1nc2oc3c(OCC)ncnc3c2c2c1COC(C)(C)C2
Response: inactive

Prompt: Input CCN(CC)Cc1cc(C(C)=O)ccc1O
Response: inactive

Prompt: Input Cc1[nH]c2ccc(S(N)(=O)=O)cc2c1C
Response: inactive

Prompt: Input O=c1c2c(nc3n1CCCCC3)sc1c(O)cccc12
Response: active

Prompt: Input CCOn1c(SC(C)C)nc2ccccc2c1=O
Response: inactive

Prompt: Input COc1ccc(C)cc1S(=O)(=O)NC1CCCCC1
Response: inactive

Prompt: Input Cn1c(SCC(=O)N2CCOCC2)nnc1-c1ccc(NC(=O)c2ccccc2F)cc1
Response: inactive

Prompt: Input CCOC(=O)[C@H]1CCC[C@@H](NS(=O)(=O)c2ccc(NC(C)=O)cc2)C1
Response: active

Prompt: Input O=C1CC(N2CCN(C(c3ccccc3)c3ccccc3)CC2)C(=O)N1 (centres undefined)
Response: inactive

Prompt: Input COc1ccc2nc(NC3=NCN(CC4CCCO4)CN3)nc(C)c2c1 (centres undefined)
Response: inactive

Prompt: Input Cn1c(=O)[nH]c(=O)c2c1nc(N(CCO)Cc1ccccc1)n2Cc1ccccc1Cl
Response: inactive

Prompt: Input COCc1cc(C)nc2sc(C(=O)NC3CCCCC3)c(N)c12
Response: inactive

* * *

Biological target: Cytochrome P450 2C19 (Homo sapiens)
Assay: blockers of cytochrome P450 2C19 activity – biochemical, luminescence, ADME assay, primary screen (AID 778);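 note: plate controls were negative control wells for no effect and 2.5 mM tranylcypromine positive control for full effect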
Details: CYP2C19 Supersomes, luciferin-H EGE luminescence, 30 min; at 5 µM; stronger effect = higher value
The campaign covered roughly 96,000 compounds. About 20,000 (21%) were called active. A selection follows.
Rule: inhibition of 10% or more gives class 1; anything lower gives class 0.

Use these answered entries as a reference point.
O=C(Cn1nnc(-c2ccccc2)n1)NCc1ccc2c(c1)OCO2 : class 1
CCOC(=O)NCc1ccc2c(c1)OCO2 : class 1
COc1ccc2[nH]c(=O)c(CN(Cc3nnnn3CCc3ccccc3)CC3CCCO3)cc2c1 (configuration not stated) : class 1
O=C(/C=C\NCC(=O)c1ccccc1)c1ccccc1 : class 1

Prompt: Does the compound CC1CCN(c2oc(-c3ccccc3F)nc2C#N)CC1 have recorded inhibition that is 10% or more?
Response: class 1

Prompt: Input Cn1c(=O)c2c(nc(N3CCCCCC3)n2CC(O)COc2ccc(Cl)cc2)n(C)c1=O (configuration not stated)
Response: class 1

Prompt: Input O=C(CCNS(=O)(=O)c1ccccc1C(F)(F)F)NCc1ccc2c(c1)OCO2
Response: class 1

Prompt: Input CCOc1ccc2[nH]c(=O)c(CN(Cc3nnnn3Cc3ccccc3)CC3CCCO3)cc2c1 (configuration not stated)
Response: class 0

Prompt: Input COc1cccc(C(CC(=O)NCCN2CCOCC2)NS(=O)(=O)c2ccc(C)cc2)c1OC (configuration not stated)
Response: class 0

Prompt: Input O=C(CNS(=O)(=O)c1ccc(Br)s1)N1CCN(C(=O)c2ccco2)CC1
Response: class 1

* * *

Biological target: Cytochrome P450 2C19 (Homo sapiens) (UniProt P33261)
Test: blockers of cytochrome P450 2C19 activity – biochemical, luminescence, ADME assay, primary screen (AID 778);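 note: plate controls were negative control wells for no effect and 2.5 mM tranylcypromine positive control for full effect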
Details: CYP2C19 Supersomes, luciferin-H EGE luminescence, 30 min; at 5 µM; stronger effect = higher value
Hit rate of the full screen: of about 96,000 compounds, about 20,000 (21%) were called active. Only a sample is shown.
Rule: inhibition of 10% or more gives Yes; anything lower gives No.

Use these answered entries as a reference point.
O=C(CNC(=O)c1ccco1)OCC(=O)c1ccccc1 : Yes
CCCN1Cc2cccc(C(=O)Nc3ccc(S(=O)(=O)N4CCCCCC4)cc3)c2C1=O : Yes
COc1cc(Cl)c(C)cc1NC(=O)CSc1nnc(-c2cccnc2)n1Cc1ccco1 : Yes
CCC(C)n1c(-c2cc(OC)c(OC)c(OC)c2)nc2nc3ccccc3nc21 (stereo unspecified) : Yes
Cc1ccc(NC(=O)CCNS(=O)(=O)c2ccc3c(c2)oc(=O)n3C)cc1C : No
O=C(Nc1ccc2c(c1)nc1n2CCCCC1)c1cc(S(=O)(=O)N2CCOCC2)ccc1Cl : Yes

Prompt: Does the compound Cc1nc2ccc(S(=O)(=O)NCC(=O)NCCN3CCCCC3C)cc2s1 (stereo unspecified) have recorded inhibition that is 10% or more?
Response: No

Prompt: Input O=C(CSc1nnc(-c2cccnc2)n1Cc1ccco1)c1ccc(Cl)c(Cl)c1
Response: Yes

Prompt: Input Oc1c(C=Nc2cccc3nsnc23)ccc2ccccc12
Response: Yes

Prompt: Input O=C(Nc1ccc(Br)cc1)c1cccc(NC(=O)C2C3CC4OC(=O)C2C4C3)c1 (stereo unspecified)
Response: Yes

Prompt: Input COc1ccc(CCn2c(-c3ccco3)nc3nc4ccccc4nc32)cc1OC
Response: Yes

Prompt: Input CCOC(=O)NC(C(F)(F)F)(C(F)(F)F)P(=O)(c1ccccc1)c1ccccc1
Response: No

Prompt: Input Cc1nc(-c2ccc(NC(=O)c3cccs3)cc2)cs1
Response: Yes

Prompt: Input CCOc1ccc2[nH]c(=O)c(C(c3nnnn3CCOC)N3CCOCC3)cc2c1 (stereo unspecified)
Response: Yes
